- Test system: T47D
- measurement_notes: Antiproliferative activity against human T47D cells after 24 hrs by MTT assay
- Format: functional, cell-based
pIC50: −log10 of the molar value.
Each entry below carries its reported pIC50.
endpoint_label: pIC50

* O=C(Nc1ccc2cc[nH]c2c1)c1ccc(F)cc1 | 4.46
* O=S(=O)(Nc1ccc2cc[nH]c2c1)c1ccc(Br)cc1 | 4.40
* O=C(Nc1ccc2cc[nH]c2c1)c1ccc(Br)cc1 | 4.20

====

- test_system: Estrogen receptor (Homo sapiens, UniProt P03372)
- Sequence (P03372 whole entry): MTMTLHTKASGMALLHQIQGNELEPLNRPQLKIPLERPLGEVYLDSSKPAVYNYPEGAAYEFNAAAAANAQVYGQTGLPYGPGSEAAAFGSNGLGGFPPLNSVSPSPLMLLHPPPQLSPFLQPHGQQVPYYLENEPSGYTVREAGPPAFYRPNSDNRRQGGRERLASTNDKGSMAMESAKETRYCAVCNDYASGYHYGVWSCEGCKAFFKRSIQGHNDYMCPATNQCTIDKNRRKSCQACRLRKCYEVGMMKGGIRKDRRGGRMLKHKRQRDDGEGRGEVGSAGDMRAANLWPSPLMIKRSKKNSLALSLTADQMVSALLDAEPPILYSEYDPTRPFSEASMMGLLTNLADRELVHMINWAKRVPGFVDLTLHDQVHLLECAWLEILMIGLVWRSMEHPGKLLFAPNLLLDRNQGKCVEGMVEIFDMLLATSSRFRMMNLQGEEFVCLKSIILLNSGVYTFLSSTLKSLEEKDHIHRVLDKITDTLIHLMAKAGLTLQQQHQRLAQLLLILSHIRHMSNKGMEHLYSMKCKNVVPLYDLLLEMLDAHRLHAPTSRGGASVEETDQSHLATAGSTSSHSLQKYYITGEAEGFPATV
Each entry below carries its reported IC50.
endpoint_label: IC50 (nM)

• O=S(=O)(Nc1ccc2cc[nH]c2c1)c1ccc(Cl)cc1 = 44.4
• O=S(=O)(Nc1ccc2cc[nH]c2c1)c1ccc(F)cc1 = 3.31
• O=S(=O)(Nc1ccc2cc[nH]c2c1)c1ccc(Br)cc1 = 22.7
• O=C(Nc1ccc2cc[nH]c2c1)c1ccc(C(F)(F)F)cc1 = 8.15
• O=C(Nc1ccc2cc[nH]c2c1)c1cccc(C(F)(F)F)c1 = 1.76
• N#Cc1ccc(C(=O)Nc2ccc3cc[nH]c3c2)cc1 = 2.4
